- System: HCT116 (p53+) (Colorectal Carcinoma)
- Test name: cells
- Condition summary: Homo sapiens, HCT-116, 72 h, read-out: cell viability (survival rate), HCT116
Note to self: use MET only for viability at 10 µM readings below 70%; a reading exactly at 70% still gets NOT MET.

compound=OC[C@H]1O[C@H](O[C@]2(CCl)O[C@H](CCl)[C@@H](O)[C@@H]2O)[C@H](O)[C@@H](O)[C@H]1Cl measured_target="HCT116 (p53+) (Colorectal Carcinoma)" class_assignment=MET
compound=O=C(O)c1ccccc1 measured_target="HCT116 (p53+) (Colorectal Carcinoma)" class_assignment=MET
compound="C[C@@H]1CCC[C@H](C)N1NC(=O)c1ccc(Cl)c(S(N)(=O)=O)c1 [Clopamide]" measured_target="HCT116 (p53+) (Colorectal Carcinoma)" class_assignment="NOT MET"
compound=CNC[C@H](O)[C@@H](O)[C@H](O)[C@H](O)CO measured_target="HCT116 (p53+) (Colorectal Carcinoma)" class_assignment="NOT MET"
compound=NC(CO)(CO)CO measured_target="HCT116 (p53+) (Colorectal Carcinoma)" class_assignment="NOT MET"
compound="O[C@@H]1CO[C@H]2[C@@H]1OC[C@@H]2O [Isosorbide]" measured_target="HCT116 (p53+) (Colorectal Carcinoma)" class_assignment=MET
compound=c1ccc2c(c1)sc1ccccc12 measured_target="HCT116 (p53+) (Colorectal Carcinoma)" class_assignment=MET

* * *

- Test system: TOV-21G
- Test name: Cell viability analysis, ovarian cancer TOV-21G
- Format: cell-based, human
- Condition summary: Homo sapiens, TOV21G, 72 h; TOV-21G; repeated experiment; read-out: The results of antibiotic drug inhibiting cancer cell lines (cell viability analysis), TOV-21G
Counter-ions that a name gives are not always drawn.
The following compounds are listed with their measured viability at 10 µM values.
Value kind: viability at 10 µM (%)

compound=CC[C@H](C)C(=O)O[C@H]1CCC=C2C=C[C@H](C)[C@H](CC[C@@H]3C[C@@H](O)CC(=O)O3)[C@H]21 value_kind="viability at 10 µM" reported_measurement=44.7
compound="CCCCCCCCCCCCCCCC[N+](C)(C)CCN(Cc1ccc(OC)cc1)c1ncccn1 [Thonzonium Bromide]" value_kind="viability at 10 µM" reported_measurement=17.4
compound="COc1c(C)c2c(c(O)c1C/C=C(\\C)CCC(=O)O)C(=O)OC2 [Mycophenolic (Mycophenolate), Mycophenolic]" value_kind="viability at 10 µM" reported_measurement=40.3
compound=CC(C)c1nc(N(C)S(C)(=O)=O)nc(-c2ccc(F)cc2)c1/C=C/[C@@H](O)C[C@@H](O)CC(=O)O value_kind="viability at 10 µM" reported_measurement=80.4
compound=CC(C)CN(C[C@@H](O)[C@H](Cc1ccccc1)NC(=O)O[C@H]1CCOC1)S(=O)(=O)c1ccc(N)cc1 value_kind="viability at 10 µM" reported_measurement=97
compound="CCc1cc2c(cc1CC)CC(NC[C@H](O)c1ccc(O)c3[nH]c(=O)ccc13)C2 [Indacaterol Maleate]" value_kind="viability at 10 µM" reported_measurement=95.3
compound=Cc1ccc2c(Cl)cc(Cl)c(O)c2n1 value_kind="viability at 10 µM" reported_measurement=40.1

* * *

- System: A375 (Amelanotic Melanoma)
- Test name: Cell viability analysis, skin cancer A375
- Format: cell-based, human
- Condition summary: Homo sapiens, A-375, 72 h, read-out: cell viability (survival rate), A375, drug 10 μM, 72 hours, WST-1, OD450 nm
Counter-ions that a name gives are not always drawn.
The entries below come with measured viability at 10 µM values attached.
Value kind: viability at 10 µM (%)

compound="NC(CO)(CO)CO [Trometamol]" value_kind="viability at 10 µM" measurement_unit=% reported_measurement=126
compound="C[C@@H]1CC[C@H]2[C@@H](C)C(=O)O[C@@H]3O[C@@]4(C)CC[C@@H]1[C@]32OO4 [Artemisinin]" value_kind="viability at 10 µM" measurement_unit=% reported_measurement=88.9
compound="Cc1cc(NS(=O)(=O)c2ccc(N)cc2)no1 [Sulfamethoxazole]" value_kind="viability at 10 µM" measurement_unit=% reported_measurement=44.3
compound="C[C@]12CCC(=O)C=C1CC[C@@H]1[C@@H]2[C@@H](O)C[C@@]2(C)[C@H]1CC[C@]2(O)C(=O)CO [Hydrocortisone (Cortisol), Hydrocortisone]" value_kind="viability at 10 µM" measurement_unit=% reported_measurement=87.6
compound="O=c1[nH]cnc2c1ncn2[C@H]1CC[C@@H](CO)O1 [Didanosine (Videx), Didanosine]" value_kind="viability at 10 µM" measurement_unit=% reported_measurement=77.2
compound="CCC(C)(C)c1ccc(CC(C)CN2C[C@@H](C)O[C@@H](C)C2)cc1 (some centres unmarked) [Amorolfine Hydrochloride]" value_kind="viability at 10 µM" measurement_unit=% reported_measurement=98.6
compound="C[C@@H](O)[C@H]1C(=O)N2C(C(=O)[O-])=C(SC3Cn4cnc[n+]4C3)[C@H](C)[C@H]12 (some centres unmarked) [Biapenem]" value_kind="viability at 10 µM" measurement_unit=% reported_measurement=60.4
compound="COc1cc(NS(=O)(=O)c2ccc(N)cc2)nc(OC)n1 [Sulphadimethoxine]" value_kind="viability at 10 µM" measurement_unit=% reported_measurement=76
compound="N=C(N)c1ccc(OCCCCCOc2ccc(C(=N)N)cc2)cc1 [Pentamidine]" value_kind="viability at 10 µM" measurement_unit=% reported_measurement=38.2
compound="Cc1nnc(NS(=O)(=O)c2ccc(N)cc2)s1 [Sulfamethizole (Proklar), Sulfamethizole]" value_kind="viability at 10 µM" measurement_unit=% reported_measurement=99.1
compound="OC(Cn1cncn1)(Cn1cncn1)c1ccc(F)cc1F [Fluconazole]" value_kind="viability at 10 µM" measurement_unit=% reported_measurement=76.9
compound="CCN1CCN(C(=O)N[C@@H](C(=O)N[C@@H]2C(=O)N3[C@@H]2SC(C)(C)[C@@H]3C(=O)O)c2ccccc2)C(=O)C1=O [Piperacillin Sodium]" value_kind="viability at 10 µM" measurement_unit=% reported_measurement=67.9
compound="c1ccc(-c2ccc(C(c3ccccc3)n3ccnc3)cc2)cc1 (centres unmarked) [Bifonazole]" value_kind="viability at 10 µM" measurement_unit=% reported_measurement=94.9
compound="C[C@@H]1[C@H](O)[C@@H](C)/C=C/C=C/C=C/C=C/C=C/C=C/C=C/[C@H](O[C@@H]2O[C@H](C)[C@@H](O)[C@H](N)[C@@H]2O)C[C@@H]2O[C@](O)(C[C@@H](O)C[C@@H](O)[C@H](O)CC[C@@H](O)C[C@@H](O)CC(=O)O[C@H]1C)C[C@H](O)[C@H]2C(=O)O [Amphotericin B (Abelcet), Amphotericin B]" value_kind="viability at 10 µM" measurement_unit=% reported_measurement=98.9
compound="CCCc1nc(C)c2c(=O)[nH]c(-c3cc(S(=O)(=O)N4CCN(CC)CC4)ccc3OCC)nn12 [Vardenafil (Vivanza), Vardenafil]" value_kind="viability at 10 µM" measurement_unit=% reported_measurement=73.2
compound="CN(C)[C@@H]1C(O)=C(C(=O)NCN2CCCC2)C(=O)[C@@]2(O)C(O)=C3C(=O)c4c(O)cccc4[C@@](C)(O)[C@H]3C[C@@H]12 [Rolitetracycline]" value_kind="viability at 10 µM" measurement_unit=% reported_measurement=82.5
compound="C[C@@H](c1ncncc1F)[C@](O)(Cn1cncn1)c1ccc(F)cc1F [Voriconazole]" value_kind="viability at 10 µM" measurement_unit=% reported_measurement=102
compound="CN(C/C=C/c1ccccc1)Cc1cccc2ccccc12 [Naftifine HCl]" value_kind="viability at 10 µM" measurement_unit=% reported_measurement=63.3
compound="Clc1ccc(C(Cn2ccnc2)OCc2ccsc2Cl)c(Cl)c1 (centres unmarked) [Tioconazole]" value_kind="viability at 10 µM" measurement_unit=% reported_measurement=60.9
compound="CC(=O)N1CCN(c2ccc(OCC3COC(Cn4ccnc4)(c4ccc(Cl)cc4Cl)O3)cc2)CC1 (centres unmarked) [Ketoconazole]" value_kind="viability at 10 µM" measurement_unit=% reported_measurement=49.2
compound="Cc1ncc([N+](=O)[O-])n1CC(C)O (centres unmarked) [Secnidazole (Flagentyl), Secnidazole]" value_kind="viability at 10 µM" measurement_unit=% reported_measurement=117
compound="CCc1c(Cl)c(O)c(Cl)c(O)c1C(=O)O[C@H]1[C@H](O)[C@H](OC)[C@H](OC/C2=C\\C=C\\C[C@H](O)/C(C)=C/[C@H](CC)[C@@H](O[C@@H]3OC(C)(C)[C@@H](OC(=O)C(C)C)[C@H](O)[C@@H]3O)/C(C)=C/C(C)=C/C[C@@H]([C@@H](C)O)OC2=O)O[C@@H]1C [Fidaxomicin]" value_kind="viability at 10 µM" measurement_unit=% reported_measurement=70.3
compound="CO/N=C(\\C(=O)N[C@@H]1C(=O)N2C(C(=O)O)=C(CSC(=O)c3ccco3)CS[C@H]12)c1csc(N)n1 [Ceftiofur hydrochloride]" value_kind="viability at 10 µM" measurement_unit=% reported_measurement=92.8
